Origin of the recorded values: ChEMBL document CHEMBL3217683

Reported pEC50 is given for each of the following molecules.
assay target: Hexokinase-4 (Homo sapiens)
Sequence (P35557 whole entry): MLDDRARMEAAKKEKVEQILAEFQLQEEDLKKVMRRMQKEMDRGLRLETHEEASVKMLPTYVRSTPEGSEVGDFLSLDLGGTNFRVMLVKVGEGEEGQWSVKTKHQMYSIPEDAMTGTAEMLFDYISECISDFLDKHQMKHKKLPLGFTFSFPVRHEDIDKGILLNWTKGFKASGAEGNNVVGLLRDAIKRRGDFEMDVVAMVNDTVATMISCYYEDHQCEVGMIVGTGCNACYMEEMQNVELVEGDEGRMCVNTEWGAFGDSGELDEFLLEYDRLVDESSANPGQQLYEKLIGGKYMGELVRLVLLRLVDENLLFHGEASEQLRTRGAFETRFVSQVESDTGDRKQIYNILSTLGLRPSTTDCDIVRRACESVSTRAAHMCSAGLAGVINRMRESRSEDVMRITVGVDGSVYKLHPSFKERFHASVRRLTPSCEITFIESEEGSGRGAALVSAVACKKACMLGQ
method: Activity at glucokinase (unknown origin)
pEC50: −log10 of the molar value.

entry smiles	pEC50
CCOC[C@H](Oc1ncnc2c1cnn2-c1ncccc1Cl)C(=O)Nc1cnc(C)cn1	5.90
CC(C)OC[C@H](Oc1ncnc2c1cnn2-c1ccccc1Cl)C(=O)Nc1ccc(F)cn1	6.70
Cc1cnc(NC(=O)[C@H](COC2CCC2)Oc2ncnc3c2cnn3-c2ccccc2Cl)cn1	7.10

====

pIC50: −log10 of the molar value.
In what follows, each item is paired with its pIC50 for Voltage-gated inwardly rectifying potassium channel KCNH2 (Homo sapiens).
value type: pIC50

entry smiles	value type	inequality operator	data value
COC[C@H](Oc1ncnc2c1cnn2-c1ccccc1Cl)C(=O)Nc1ccc(C)cn1	pIC50	=	4.30
Cc1cnc(NC(=O)[C@H](COC(C)C)Oc2ncnc3c2cnn3-c2ccccc2Cl)cn1	pIC50	<	4.00
CCOC[C@H](Oc1ncnc2c1cnn2-c1ncccc1Cl)C(=O)Nc1ccccn1	pIC50	<	4.00
COC[C@H](Oc1ncnc2c1cnn2-c1ncccc1Cl)C(=O)Nc1ccc(C)cn1	pIC50	<	4.00
COC[C@H](Oc1ncnc2c1cnn2-c1ncccc1Cl)C(=O)Nc1cnc(C)cn1	pIC50	<	4.10
Cc1ccc(NC(=O)[C@H](COC(C)C)Oc2ncnc3c2cnn3-c2ccccc2Cl)nc1	pIC50	=	4.50
CC(C)OC[C@H](Oc1ncnc2c1cnn2-c1ccccc1Cl)C(=O)Nc1ccccn1	pIC50	=	4.20
CCOC[C@H](Oc1ncnc2c1cnn2-c1ncccc1Cl)C(=O)Nc1ccc(C#N)cn1	pIC50	=	4.70
CC(C)OC[C@H](Oc1ncnc2c1cnn2-c1ncccc1Cl)C(=O)Nc1ccc(F)cn1	pIC50	=	4.10
CCOC[C@H](Oc1ncnc2c1cnn2-c1ncccc1Cl)C(=O)Nc1ccc(Cl)cn1	pIC50	=	5.00
CC(C)OC[C@H](Oc1ncnc2c1cnn2-c1ncccc1Cl)C(=O)Nc1ccc(Cl)cn1	pIC50	=	4.20
CCOC[C@H](Oc1ncnc2c1cnn2-c1ncccc1Cl)C(=O)Nc1cnc(C)cn1	pIC50	=	4.80
Cc1ccc(NC(=O)[C@H](COC(C)C)Oc2ncnc3c2cnn3-c2ncccc2Cl)nc1	pIC50	<	4.00

====

method: Clearance in rat
Format: ADME, organism-based
protocol conditions: in vivo

entry smiles	clearance [mL/min/kg]
Cc1cnc(NC(=O)[C@H](COC(C)C)Oc2ncnc3c2cnn3-c2ccccc2Cl)cn1	61
Cc1cnc(NC(=O)[C@H](COC2CCC2)Oc2ncnc3c2cnn3-c2ccccc2Cl)cn1	42
CCOC[C@H](Oc1ncnc2c1cnn2-c1ncccc1Cl)C(=O)Nc1cnc(C)cn1	50
Cc1ccc(NC(=O)[C@H](COC(C)C)Oc2ncnc3c2cnn3-c2ccccc2Cl)nc1	71
Cc1ccc(NC(=O)[C@H](COC(C)C)Oc2ncnc3c2cnn3-c2ncccc2Cl)nc1	62
